biological target: Histamine H2 receptor (Cavia porcellus, UniProt P47747); experiment: Antagonist activity at histamine H2 receptor in guinea pig atrium assessed as changes in rate of spontaneous beat; assay type: functional, tissue-based, Cardiac atrium
Sequence (P47747 whole entry): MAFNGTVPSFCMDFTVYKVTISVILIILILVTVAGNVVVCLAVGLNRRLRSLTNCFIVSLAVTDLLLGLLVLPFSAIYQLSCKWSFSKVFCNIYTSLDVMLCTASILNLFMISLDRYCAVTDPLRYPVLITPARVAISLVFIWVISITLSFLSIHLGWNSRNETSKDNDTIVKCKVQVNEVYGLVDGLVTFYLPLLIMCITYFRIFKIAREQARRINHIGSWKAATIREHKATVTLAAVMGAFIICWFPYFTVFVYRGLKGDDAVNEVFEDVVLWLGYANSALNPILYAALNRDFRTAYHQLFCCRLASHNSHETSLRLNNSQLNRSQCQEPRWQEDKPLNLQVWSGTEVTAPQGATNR
OBSERVATION_TYPE: EC50
Give your result as the value with the unit written after it.

Inquiry: State the measured EC50 (Histamine H2 receptor (Cavia porcellus, UniProt P47747)) of CCCN(CCC)Cc1ccc(-c2ccc(CN(CCC)CCC)cc2)cc1
Reply text: 3.39 µM

###

target: Acetylcholinesterase (Rattus norvegicus); test: Inhibition of acetylcholinesterase in Wistar rat brain homogenate at upto 10 uM by Ellman's method; format: tissue-based
Activity calls are given as the source filed them. No cut-off for these calls is given here.
OBSERVATION_TYPE: Activity

A selection of reference data follows.
{"COMPOUND": "CC(=O)N1CCN(Cc2ccc(-c3ccc(CN4CCN(C(C)=O)CC4)cc3)cc2)CC1", "EXPERIMENTAL_SYSTEM": "Acetylcholinesterase (Rattus norvegicus)", "Activity": "inactive"}
{"COMPOUND": "CCN(CC)Cc1ccc(-c2ccc(CN3CCCCC3)cc2)cc1", "EXPERIMENTAL_SYSTEM": "Acetylcholinesterase (Rattus norvegicus)", "Activity": "inactive"}
{"COMPOUND": "CN(C)CCc1ccc(-c2ccc(CCN(C)C)cc2)cc1", "EXPERIMENTAL_SYSTEM": "Acetylcholinesterase (Rattus norvegicus)", "Activity": "inactive"}
{"COMPOUND": "CCN(CC)Cc1ccc(-c2ccc(CN(CC)CC)cc2)cc1", "EXPERIMENTAL_SYSTEM": "Acetylcholinesterase (Rattus norvegicus)", "Activity": "inactive"}
{"COMPOUND": "CN(C)Cc1ccc(-c2ccc(CN3CCCCC3)cc2)cc1", "EXPERIMENTAL_SYSTEM": "Acetylcholinesterase (Rattus norvegicus)", "Activity": "inactive"}
{"COMPOUND": "N#Cc1ccc(OCc2ccc(-c3ccc(CN4CCCCC4)cc3)cc2)cc1", "EXPERIMENTAL_SYSTEM": "Acetylcholinesterase (Rattus norvegicus)", "Activity": "inactive"}
{"COMPOUND": "c1cc(-c2ccc(CN3CCOCC3)cc2)ccc1CN1CCOCC1", "EXPERIMENTAL_SYSTEM": "Acetylcholinesterase (Rattus norvegicus)", "Activity": "inactive"}
{"COMPOUND": "CN(C)Cc1ccc(-c2ccc(CN(C)C)cc2)cc1", "EXPERIMENTAL_SYSTEM": "Acetylcholinesterase (Rattus norvegicus)", "Activity": "inactive"}

Inquiry: Input c1cc(-c2ccc(CN3CCOCC3)cc2)ccc1CN1CCCCC1 , output reported Activity.
Reply text: inactive

Inquiry: Input CC1CCN(CCc2ccc(-c3ccc(CCN4CCC(C)CC4)cc3)cc2)CC1 , output reported Activity.
Reply text: inactive

Inquiry: Input O=C1CCCCN1Cc1ccc(-c2ccc(CN3CCCCC3)cc2)cc1 , output reported Activity.
Reply text: inactive

Inquiry: Input CC1CC(C)CN(Cc2ccc(-c3ccc(CN4CC(C)CC(C)C4)cc3)cc2)C1 (centres undefined) , output reported Activity.
Reply text: inactive

Inquiry: Input c1cc(-c2ccc(CCN3CCCCC3)cc2)ccc1CCN1CCCCC1 , output reported Activity.
Reply text: inactive

Inquiry: Input CCCCCNCc1ccc(-c2ccc(CNCCCCC)cc2)cc1 , output reported Activity.
Reply text: inactive

This collection of values is drawn from ChEMBL document CHEMBL1151697.
